Data origin: paper PMC9101642

Kindly supply the reported IC50 values for the records listed here.
Target: ERβ (Homo sapiens, UniProt Q92731)
Sequence (Q92731 whole entry): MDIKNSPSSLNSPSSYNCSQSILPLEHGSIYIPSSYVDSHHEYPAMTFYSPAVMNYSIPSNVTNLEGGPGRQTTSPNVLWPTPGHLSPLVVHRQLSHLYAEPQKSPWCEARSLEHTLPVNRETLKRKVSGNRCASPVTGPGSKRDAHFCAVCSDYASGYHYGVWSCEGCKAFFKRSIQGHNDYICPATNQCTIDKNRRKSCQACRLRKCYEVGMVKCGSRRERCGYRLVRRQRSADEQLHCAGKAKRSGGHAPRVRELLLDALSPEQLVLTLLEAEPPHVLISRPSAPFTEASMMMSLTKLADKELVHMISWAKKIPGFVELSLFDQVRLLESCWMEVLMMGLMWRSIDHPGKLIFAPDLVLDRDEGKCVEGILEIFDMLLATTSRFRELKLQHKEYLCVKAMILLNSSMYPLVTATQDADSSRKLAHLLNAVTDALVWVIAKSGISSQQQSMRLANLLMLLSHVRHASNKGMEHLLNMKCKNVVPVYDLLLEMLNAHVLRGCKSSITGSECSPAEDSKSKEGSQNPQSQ
Assay: Fluorescence polarization competition assay: antagonistic potency and relative binding affinity
Conditions: concentration that antagonizes 50% of ERβ signaling activity; read-out: ERβ (IC50 nM)
Write the value in nM as a bare number.

input: Please report the recorded IC50 for CC(=O)c1cc(C(=O)O[C@@H]2/C=C/C(=O)O[C@@H](O)CCC/C=C/[C@@H]3C[C@H](O)C[C@H]32)ccc1OCCN(C)C [Compound 3DPQ-2] .
output: 77.2

input: And then CC(=O)c1cc(C(=O)O[C@@H]2/C=C/C(=O)O[C@@H](O)CCC/C=C/[C@@H]3C[C@H](O)C[C@H]32)ccc1OCCN1CCCC2CCCNC21 (stereo partly drawn) [Compound 3DPQ-8] , what is it?
output: 72.3

input: And then CC(=O)c1cc(C(=O)O[C@@H]2/C=C/C(=O)O[C@@H](O)CCC/C=C/[C@@H]3C[C@H](O)C[C@H]32)ccc1OCCN1CC(C(=O)O)=CCC1=O [Compound 3DPQ-9] , what is it?
output: 83.6

###

Kindly supply the reported ALP (A/L) values for the records listed here.
Assay: Serum biochemical markers after treatment of MNU-induced rats
Format: in vivo, Wistar rats
Settings: serum, dose 50 mg/kg
Write the value in A/L as a bare number.

input: Please report the recorded ALP (A/L) for CC(=O)c1cc(C(=O)OC2/C=C/C(=O)O[C@@H](O)CCC/C=C/[C@@H]3C[C@H](O)C[C@@H]23)ccc1OCCN1CCC=C(C(=O)O)C1 (stereo partly drawn) [Compound 3DPQ-3] .
output: 86.65

input: And then CN(N=O)C(N)=O [MNU, Methyl nitrosourea, reference compound] , what is it?
output: 232.54

input: And then O=C(c1ccc(OCCN2CCCCC2)cc1)c1c(-c2ccc(O)cc2)sc2cc(O)ccc12 [Ral., Raloxifene, reference compound] , what is it?
output: 106.43

###

Test system: Ishikawa endometrial adenocarcinoma cells
Assay: Antiproliferative assay
Assay type: cell-based
Settings: Homo sapiens, growth inhibition
result type: IC50

input: Please report the recorded IC50 for CC(=O)c1cc(C(=O)O[C@@H]2/C=C/C(=O)O[C@@H](O)CCC/C=C/[C@@H]3C[C@H](O)C[C@H]32)ccc1OCCN1CCCC(O)C1=O (stereo partly shown) .
output: 0.77 nM

input: And then CC(=O)c1cc(C(=O)O[C@@H]2/C=C/C(=O)O[C@@H](O)CCC/C=C/[C@@H]3C[C@H](O)C[C@H]32)ccc1OCCN(C)C , what is it?
output: 0.99 nM

input: And then CC(=O)c1cc(C(=O)O[C@@H]2/C=C/C(=O)O[C@@H](O)CCC/C=C/[C@@H]3C[C@H](O)C[C@H]32)ccc1OCCN1C=Cc2ccccc2C1 , what is it?
output: 1.74 nM

input: And then CC(=O)c1cc(C(=O)OC2/C=C/C(=O)O[C@@H](O)CCC/C=C/[C@@H]3C[C@H](O)C[C@@H]23)ccc1OCCN1CCC=C(C(=O)O)C1 (stereo partly shown) , what is it?
output: 0.84 nM
